Test system: HEK293
Experiment summary: Cytotoxicity against HEK293 cells at 40 uM incubated for 72 hrs by resazurin dye based assay relative to control
Format: cell-based
Assay conditions: human, hek293, 72 h
Measured Activity, listed per entry for reference.
Unit % implied. Number only.

Example entries and their recorded answers appear below.
>  <Compound>
O=S(=O)(O)CCc1nccc2c1[nH]c1ccccc12

>  <Activity [%]>
30

$$$$
>  <Compound>
OCC(O)c1nccc2c1[nH]c1ccccc12 (stereo unspecified)

>  <Activity [%]>
37

$$$$
>  <Compound>
c1ccc2c(c1)[nH]c1c([C@H]3CC[C@@H]3c3nccc4c3[nH]c3ccccc34)nccc12

>  <Activity [%]>
29

$$$$
>  <Compound>
CCc1nccc2c1[nH]c1ccccc12

>  <Activity [%]>
35

$$$$
>  <Compound>
CCc1ncc(S(C)(=O)=O)c2c1[nH]c1ccccc12

>  <Activity [%]>
17

$$$$

# input Read off the recorded Activity for CCN(CC)CCCC(C)Nc1ccnc2cc(Cl)ccc12 (stereo unspecified)
# output 40
